Test: NCI Yeast Anticancer Drug Screen. Data for the bub3 strain (AID 167)
Conditions: S. cerevisiae bub3 mutant strain, at 50.0 µM, stronger effect = higher value
Procedure: Growth inhibition of yeast strains with defined genetic alterations is measured as a screen for potential anti-cancer activity. Selected strains with alterations in DNA damage repair or cell cycle control were exposed to compounds and growth inhibition was measured relative to vehicle treated controls. The strain used in this assay is bub3
This is part of a sample that, as a whole, favours compounds with a hit. Of some 79,000 tested, about 15% had one in any assay.
Known growth inhibition of a selection of compounds
Answer format: numeric, % implied, no suffix.

Past entries and their recorded results:
- compound: "CN(C)CCCNC(=O)Nc1ccc(Cl)cc1"
  growth inhibition [%]: -0.35
- compound: "CCCOC(=O)C(=O)OCCC"
  growth inhibition [%]: -11.3

Q: Tell me the measured growth inhibition of O=C1OC2C(O1)C1(c3ccccc3)OC2(c2ccccc2)c2ccccc21 (configuration not stated) , please.
A: 4.85

Q: Try the compound CS(=O)CC(Nc1ccccc1)c1ccccc1 (configuration not stated)
A: -25.6
